Numbers sourced from paper PMC11173422.

Target: Rhodesain (TbCatL) (Trypanosoma brucei rhodesiense, UniProt Q95PM0)
Construct: stably transformed with the rhodesain ΔC gene cloned into the pPICZαA vector; made in house; host or cells: Pichia pastoris X-33 (pPICZαA, secreted into the culture supernatant)
Sequence (Q95PM0 entry or part of it): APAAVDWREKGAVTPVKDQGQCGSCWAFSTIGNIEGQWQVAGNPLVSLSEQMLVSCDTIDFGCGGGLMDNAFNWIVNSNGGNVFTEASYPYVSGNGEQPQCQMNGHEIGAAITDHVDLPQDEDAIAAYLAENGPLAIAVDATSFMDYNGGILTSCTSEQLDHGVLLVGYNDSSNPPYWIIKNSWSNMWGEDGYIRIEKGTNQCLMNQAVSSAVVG
Test: Fluorimetric rhodesain inhibition assay with Z-Phe-Arg-AMC
Format: biochemical
Details: SAR discussion
assayReadout: Inhibition of rhodesain, in words

[[record]]
compound = "CC(C)C[C@H](NC(=O)[C@H](Cc1ccccc1)NC(=O)c1cc([N+](=O)[O-])ccc1F)C(=O)O [Compound 11]"
assayreadout = "Inhibition of rhodesain, in words"
result = "ineffective"

[[record]]
compound = "CC(C)C[C@H](NC(=O)[C@H](Cc1ccccc1)NC(=O)c1cccc([N+](=O)[O-])c1F)C(=O)O [Compound 10]"
assayreadout = "Inhibition of rhodesain, in words"
result = "ineffective"


###

Molecular target: Rhodesain (TbCatL) (Trypanosoma brucei rhodesiense, UniProt Q95PM0)
Construct: stably transformed with the rhodesain ΔC gene cloned into the pPICZαA vector
Assay: Fluorimetric rhodesain inhibition assay with Z-Phe-Arg-AMC
pIC50: −log10 of the molar value.
Each item that follows carries a reported pIC50.
assayReadout: pIC50

[[record]]
compound = "CC(C)C[C@H](NC(=O)[C@H](Cc1ccccc1)Nc1cc(F)c([N+](=O)[O-])cc1[N+](=O)[O-])C(=O)O [Compound 3]"
recordednumber = 7.61

[[record]]
compound = "CC(C)C[C@H](NC(=O)[C@H](Cc1ccccc1)Nc1ccc([N+](=O)[O-])c([N+](=O)[O-])c1)C(=O)O [Compound 2]"
recordednumber = 7.44


###

Molecular target: Rhodesain (TbCatL) (Trypanosoma brucei rhodesiense)
Construct: stably transformed with the rhodesain ΔC gene cloned into the pPICZαA vector; made in house; host or cells: Pichia pastoris X-33 (pPICZαA, secreted into the culture supernatant)
Assay: Fluorimetric rhodesain inhibition assay with Z-Phe-Arg-AMC
Format: biochemical
pKi: −log10 of the molar value.
Lab note: compare pKi against 5. Equal or greater, write met. Smaller, write not met.

[[record]]
compound = "CC(C)C[C@H](NC(=O)[C@H](Cc1ccccc1)Nc1ccc([N+](=O)[O-])cc1)C(=O)O [Compound 4]"
assignedlabel = "not met"

[[record]]
compound = "C[C@@H](Nc1cc(F)c([N+](=O)[O-])cc1[N+](=O)[O-])C(=O)N[C@H](CCc1ccccc1)C(=O)O [Compound 15]"
assignedlabel = "not met"

[[record]]
compound = "CC(C)C[C@H](NC(=O)[C@H](Cc1ccccc1)Nc1cc(F)c([N+](=O)[O-])cc1[N+](=O)[O-])C(=O)O [Compound 3]"
assignedlabel = "met"

[[record]]
compound = "CC(C)C[C@H](NC(=O)[C@H](Cc1ccccc1)Nc1cc(Cl)ncn1)C(=O)O [Compound 6]"
assignedlabel = "not met"

[[record]]
compound = "C[C@@H](NC(=O)[C@@H](CCc1ccccc1)Nc1cc(F)c([N+](=O)[O-])cc1[N+](=O)[O-])C(=O)O [Compound 14]"
assignedlabel = "not met"

[[record]]
compound = "CC(C)C[C@H](NC(=O)[C@H](Cc1ccccc1)NC(=O)c1cc([N+](=O)[O-])c(Cl)cc1[N+](=O)[O-])C(=O)O [Compound 12]"
assignedlabel = "not met"

[[record]]
compound = "CC(C)C[C@H](NC(=O)[C@H](Cc1ccccc1)Nc1cc(F)ccc1[N+](=O)[O-])C(=O)O [Compound 5]"
assignedlabel = "not met"

[[record]]
compound = "CC(C)C[C@H](NC(=O)[C@H](Cc1ccccc1)NC(=O)c1cccc([N+](=O)[O-])c1F)C(=O)O [Compound 10]"
assignedlabel = "not met"

[[record]]
compound = "CC(C)C[C@H](NC(=O)[C@H](Cc1ccccc1)NC(=O)Nc1ccc(F)c([N+](=O)[O-])c1)C(=O)O [Compound 7]"
assignedlabel = "not met"

[[record]]
compound = "CC(C)C[C@H](NC(=O)[C@H](Cc1ccccc1)NC(=O)c1ccc(Cl)nc1Cl)C(=O)O [Compound 8]"
assignedlabel = "not met"

[[record]]
compound = "O=C(O)[C@H](CCc1ccccc1)NC(=O)[C@H](Cc1ccccc1)Nc1cc(F)c([N+](=O)[O-])cc1[N+](=O)[O-] [Compound 17]"
assignedlabel = "met"

